Assay: Bi-directional permeability in MDCK cells
Conditions: dog, percent recovery B -> A
measured-property: recovery
Please state the value followed by its unit.

Please give the measured recovery for this molecule: O=c1[nH]c(=O)n([C@H]2C[C@H](O)[C@@H](CO)O2)cc1F [Floxuridine, reference compound]
82%

Fill blank: measured recovery of the molecule Nc1ccn([C@@H]2O[C@H](CO)[C@@H](O)C2(F)F)c(=O)n1 [Gemcitabine, reference compound] is ____.
95%

What value of recovery has been reported for the following molecule? CCCCCOC(=O)Nc1nc(=O)n([C@@H]2O[C@H](C)[C@@H](O)[C@H]2O)cc1F
99%

###

Assay: in vitro
Settings: human, Caco-2
measured-property: Papp A→B (×10⁻⁶ cm/s)
Lab book: enter the figure in ×10⁻⁶ cm/s, no units written.

Dear colleague, I am looking for the recorded Papp A→B of the following compound: CCCCCOC(=O)Nc1nc(=O)n([C@@H]2O[C@H](C)[C@@H](O)[C@H]2O)cc1F [Capecitabine]
2.22

Please look up its Papp A→B: O=c1[nH]c(=O)n([C@H]2C[C@H](O)[C@@H](CO)O2)cc1F [Floxuridine, reference compound]
0.75
